Consider the following compounds; for each one, report its Cmax.
# testMethodNotes: Pharmacokinetics study after separate oral administration in rats (HPLC-MS of plasma)
# Type: in vivo, Sprague-Dawley rats
# setupConditions: male, Sprague-Dawley, rat, plasma, po, 50 mg/kg, IQ group (oral IQ 50 mg/kg), rat plasma; labelled substance = analyte; mean of 5 rats; read-out: Cmax

[Q] Give a short answer stating reported Cmax for O=C(O)[C@H]1O[C@@H](Oc2c(-c3ccc(O)c(O)c3)oc3cc(O)cc(O)c3c2=O)[C@H](O)[C@@H](O)[C@@H]1O [QG, Quercetin-3-O-β-D-glucuronide] .
[A] 3900 ng/mL

[Q] Give a short answer stating reported Cmax for O=c1c(O[C@@H]2O[C@H](CO)[C@@H](O)[C@H](O)[C@H]2O)c(-c2ccc(O)c(O)c2)oc2cc(O)cc(O)c12 [IQ, Isoquercitrin] .
[A] 348 ng/mL

[Q] Give a short answer stating reported Cmax for O=c1c(O)c(-c2ccc(O)c(O)c2)oc2cc(O)cc(O)c12 [Qr, Quercetin] .
[A] 6600 ng/mL

---

# testMethodNotes: Pharmacokinetics study after separate oral administration in rats (HPLC-MS of plasma)
# Type: in vivo, Sprague-Dawley rats
# setupConditions: male, Sprague-Dawley, rat, plasma, po, 50 mg/kg, Qr group (oral Qr 50 mg/kg), rat plasma; labelled substance = analyte; mean of 5 rats; read-out: Cmax
assayMetric: Cmax (µg/mL)
The response must be a number in µg/mL with no trailing unit.

[Q] Give a short answer stating reported Cmax for O=C(O)[C@H]1O[C@@H](Oc2c(-c3ccc(O)c(O)c3)oc3cc(O)cc(O)c3c2=O)[C@H](O)[C@@H](O)[C@@H]1O [QG, Quercetin-3-O-β-D-glucuronide] .
[A] 6.46

[Q] Give a short answer stating reported Cmax for `O=c1c(O)c(-c2ccc(O)c(O)c2)oc2cc(O)cc(O)c12` .
[A] 7.47

---

# testMethodNotes: Pharmacokinetics study after separate oral administration in rats (HPLC-MS of plasma)
# Format: in vivo, Sprague-Dawley rats
# setupConditions: male, Sprague-Dawley, rat, plasma, po, 50 mg/kg, IQ group: oral IQ 50 mg/kg, rat plasma, mean ± SD, n = 5; read-out: MRT0−t (converted)
assayMetric: MRT last (h)
The response must be a number in h with no trailing unit.

[Q] Give a short answer stating reported MRT last for `O=c1c(O[C@@H]2O[C@H](CO)[C@@H](O)[C@H](O)[C@H]2O)c(-c2ccc(O)c(O)c2)oc2cc(O)cc(O)c12` .
[A] 0.677

[Q] Give a short answer stating reported MRT last for `O=c1c(O)c(-c2ccc(O)c(O)c2)oc2cc(O)cc(O)c12` .
[A] 7.04

[Q] Give a short answer stating reported MRT last for O=C(O)[C@H]1O[C@@H](Oc2c(-c3ccc(O)c(O)c3)oc3cc(O)cc(O)c3c2=O)[C@H](O)[C@@H](O)[C@@H]1O [QG, Quercetin-3-O-β-D-glucuronide] .
[A] 5.93

---

# testMethodNotes: Pharmacokinetics study after separate oral administration in rats (HPLC-MS of plasma)
# Format: in vivo, Sprague-Dawley rats
# setupConditions: male, Sprague-Dawley, rat, plasma, po, 50 mg/kg, Qr group (oral Qr 50 mg/kg), rat plasma; labelled substance = analyte; individual rats No1-No5; read-out: t1/2z
assayMetric: half-life (h)
The response must be a number in h with no trailing unit.

[Q] Give a short answer stating reported half-life for O=c1c(O)c(-c2ccc(O)c(O)c2)oc2cc(O)cc(O)c12 [Qr, Quercetin] .
[A] 7.67
